assay target: Mitogen-activated protein kinase 3 (Homo sapiens)
Sequence (P27361 whole entry): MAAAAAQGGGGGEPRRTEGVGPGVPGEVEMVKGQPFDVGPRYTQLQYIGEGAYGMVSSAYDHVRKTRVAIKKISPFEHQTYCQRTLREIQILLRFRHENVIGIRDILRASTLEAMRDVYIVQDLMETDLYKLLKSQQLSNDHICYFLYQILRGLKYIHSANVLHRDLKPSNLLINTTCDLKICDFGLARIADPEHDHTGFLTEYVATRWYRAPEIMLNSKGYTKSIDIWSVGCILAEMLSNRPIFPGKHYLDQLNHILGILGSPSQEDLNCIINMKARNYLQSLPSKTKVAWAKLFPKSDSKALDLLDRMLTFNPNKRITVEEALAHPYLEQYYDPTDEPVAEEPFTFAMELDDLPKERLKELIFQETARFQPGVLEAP
assay name: Inhibition of ERK1
pIC50: −log10 of the molar value.
This listing pairs compounds with measured pIC50.
measured attribute: pIC50

smiles input: COc1cc2c(Oc3ccc(-c4cnc(Nc5ccc(F)cc5)n(C)c4=O)cc3F)ccnc2cc1OCCCN1CCOCC1
assay result: < 4.00
//
smiles input: COc1cc2c(Oc3ccc(-c4cnc(Nc5ccc(F)cc5)n(C)c4=O)nc3)ccnc2cc1OCCCN1CCOCC1
assay result: < 4.00
//
smiles input: COc1cc2c(Oc3ccc(-c4cnc(Cc5ccccc5)n(C)c4=O)cc3F)ccnc2cc1OCCCN1CCOCC1
assay result: < 4.00

The origin of these recorded values is ChEMBL document CHEMBL1140082.
